B1: YPEL3 (parent)
chain: SKPKTFQAYLDDCHRRYSCAHCRA

# Variants of: B1
# TEST METHOD NOTES: protein stability index of a GFP-peptide fusion (GPS, HEK-293T) (PSI 1-6); higher = more stable;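 also: lentivirally expressed fusions sorted by FACS into six bins by GFP to DsRed ratio, PSI derived from sequencing read proportions per bin multiplied by bin number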
# EXPERIMENTAL PARAMETERS: c terminus: a fixed tail appended
Please note: fulfilled applies when protein stability index is 2 or greater, and not fulfilled applies otherwise.

MUTATION ID | ASSIGNED CATEGORY
A8R | not fulfilled

Ask: Does the variant "C22Q" have recorded protein stability index that is 2 or more?
Result: fulfilled

Ask: Does the variant "A24G" have recorded protein stability index that is 2 or more?
Result: fulfilled

Ask: Does the variant "A8D" have recorded protein stability index that is 2 or more?
Result: not fulfilled

Ask: Does the variant "F6N" have recorded protein stability index that is 2 or more?
Result: fulfilled

Ask: Does the variant "D11I" have recorded protein stability index that is 2 or more?
Result: fulfilled

Ask: Does the variant "A20D" have recorded protein stability index that is 2 or more?
Result: not fulfilled
